assay: Stability testing of peptide variants (scored); assay type: physicochemical
Observation Type: Stability testing

// solved cases for Stability testing follow
GSLNPEWNETGGYGRKKRRQRRR [linear bC2-4]	+++
GKLFIMNADGYGRKKRRQRRR [Linear bI (4)]	++
GKLFIMNLDGYGRKKRRQRRR [Linear bI (3)]	++
GKLFIMNLGYGRKKRRQRRR [Linear bI (5)]	+++
GKLFIMNLSGYGRKKRRQRRR (GKLFIMNAGGYGRKKRRQRRR) [bI linear analog]	++
GEEVIRNISGYGRKKRRQRRR [bII linear analog]	+++
GQEVIRNGGYGRKKRRQRRR [linear bII]	−

Attention now shifts to the item below.
For reference, reported Stability testing for GKLFIMNAGGYGRKKRRQRRR [Linear bI (6)] stands at ++
